- assay_overview: chemical genetic growth profiling, strain panel (AID 1159580);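 note: tested at 20 µM; growth read once vehicle control cultures reached saturation at 30 °C; 1 = growth at the plate median or of vehicle wells; lower values mean less growth of the strain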
- condition_info: S. cerevisiae deletion strains, growth OD, locus YLR320W, strain mms22, active compounds read low
Hit rate of the full screen: of about 5,500 compounds, about 2,000 (36%) were called active. About 18% were inconclusive and are not listed. The list shows a part of the results.
So I've got a bunch of compounds here, and I need their normalized growth values.
The answer should be a number; do not append a unit.

Qu. Give the reported normalized growth for this compound. CC1(C)S[C@@H]2[C@H](NC(=O)[C@@H](N)c3ccc(O)cc3)C(=O)N2[C@H]1C(=O)O
Ans. 0.987

Qu. Give the reported normalized growth for this compound. Nc1ccc(S(=O)(=O)Nc2ncccn2)cc1
Ans. 0.982

Qu. Give the reported normalized growth for this compound. COP(N)(=O)SC (centres undefined)
Ans. 1.01

Qu. Give the reported normalized growth for this compound. C[C@@H]1O[C@@H](O[C@H]2CC[C@]3(C=O)C4CC[C@]5(C)[C@@H](C6=CC(=O)OC6)CC[C@]5(O)C4CC[C@]3(O)C2)[C@H](O)[C@H](O)[C@H]1O (some centres undefined)
Ans. 0.989

Qu. Give the reported normalized growth for this compound. O=c1c(-c2ccc(O)cc2)coc2c(C3O[C@H](CO)[C@@H](O)[C@H](O)[C@H]3O)c(O)ccc12 (some centres undefined)
Ans. 0.988

Qu. Give the reported normalized growth for this compound. NCCCN
Ans. 0.983

Qu. Give the reported normalized growth for this compound. COC1C(O)C(O[C@H]2CC[C@]3(C=O)C4C(CC[C@]3(O)C2)[C@@]2(O)CC[C@H](C3=CC(=O)OC3)[C@@]2(C)C[C@H]4OC(C)=O)OC(C)C1OC(C)=O (some centres undefined)
Ans. 1.02

Qu. Give the reported normalized growth for this compound. O=C(CCCN1CCC2(CC1)C(=O)NCN2c1ccccc1)c1ccc(F)cc1
Ans. 0.993

Qu. Give the reported normalized growth for this compound. CC(=O)OC1CC[C@@]2(C)C(CCC3C2CC[C@]2(C)C(C4=CC(=O)OC4)C(OC(C)=O)CC32O)C1 (some centres undefined)
Ans. 1.01

----------
- assay_overview: chemical genetic growth profiling, strain panel (AID 1159580);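 note: tested at 20 µM; growth read once vehicle control cultures reached saturation at 30 °C; 1 = growth at the plate median or of vehicle wells; lower values mean less growth of the strain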
- condition_info: S. cerevisiae deletion strains, growth OD, locus YJL164C, strain tpk1, active compounds read low
The whole screen tested about 5,500 compounds, of which about 2,000 (36%) were called active. Inconclusive results (about 18%) are left out. The list shows a part of the results.
So I've got a bunch of compounds here, and I need their normalized growth values.
The answer should be a number; do not append a unit.

Qu. Give the reported normalized growth for this compound. COC(=O)C[C@H]1C(C)(C)[C@@H](O)[C@@H]2CC3=C4CC(O)O[C@@H](c5ccoc5)[C@]4(C)CCC3[C@@]1(C)C2=O (stereo partly specified)
Ans. 1.01

Qu. Give the reported normalized growth for this compound. CC1CCCC(C)N1NC(=O)c1ccc(Cl)c(S(N)(=O)=O)c1 (stereo unspecified)
Ans. 1

Qu. Give the reported normalized growth for this compound. Cc1ccc(-c2nc3ccc(C)cn3c2CC(=O)N(C)C)cc1
Ans. 1.01

Qu. Give the reported normalized growth for this compound. Cc1c(OCC(F)(F)F)ccnc1CS(=O)c1nc2ccccc2[nH]1 (stereo unspecified)
Ans. 1.02

Qu. Give the reported normalized growth for this compound. COc1cc(C(=O)N2CCOCC2)cc(OC)c1OC
Ans. 0.999

Qu. Give the reported normalized growth for this compound. CC(=O)O[C@@H]1c2c(ccc3ccc(=O)oc23)OC(C)(C)[C@@H]1OC(=O)CC(C)C
Ans. 1.02

Qu. Give the reported normalized growth for this compound. CC1(C)S[C@@H]2[C@H](NC(=O)[C@@H](N)c3ccc(O)cc3)C(=O)N2[C@H]1C(=O)O
Ans. 0.995

Qu. Give the reported normalized growth for this compound. C=CCSSSCC=C
Ans. 0.974

Qu. Give the reported normalized growth for this compound. CN(C)CC[C@H](c1ccc(Cl)cc1)c1ccccn1
Ans. 0.992

Qu. Give the reported normalized growth for this compound. O=C(O)CCc1nc(-c2ccccc2)c(-c2ccccc2)o1
Ans. 0.954

Qu. Give the reported normalized growth for this compound. COC(=O)C(N)CS (stereo unspecified)
Ans. 0.965

----------
So I've got a bunch of molecules here, and I need their normalized growth values.
- assay_overview: chemical genetic growth profiling, strain panel (AID 1159580);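 note: tested at 20 µM; growth read once vehicle control cultures reached saturation at 30 °C; 1 = growth at the plate median or of vehicle wells; lower values mean less growth of the strain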
- condition_info: S. cerevisiae deletion strains, growth OD, locus YPR119W, strain clb2, active compounds read low
Hit rate of the full screen: of about 5,500 compounds, about 2,000 (36%) were called active. Not shown: some 18% with an inconclusive outcome. This is one part of the list.
The answer should be a number; do not append a unit.

Qu. Give the reported normalized growth for this molecule. Cc1c(C(N)=O)cc([N+](=O)[O-])cc1[N+](=O)[O-]
Ans. 0.982

Qu. Give the reported normalized growth for this molecule. CC1(C)S[C@@H]2[C@H](NC(=O)[C@@H](N)c3ccc(O)cc3)C(=O)N2[C@H]1C(=O)O
Ans. 1

Qu. Give the reported normalized growth for this molecule. COc1ccc(-c2cc(=O)c3c(O)c(OC)c(OC)cc3o2)cc1O
Ans. 0.995

Qu. Give the reported normalized growth for this molecule. NC(=O)c1ccc([N+](=O)[O-])cc1Cl
Ans. 0.986

Qu. Give the reported normalized growth for this molecule. COc1cc(O)c2c(=O)cc(-c3ccc(OC)c(-c4c(O)cc(O)c5c(=O)cc(-c6ccc(O)cc6)oc45)c3)oc2c1
Ans. 1.01

Qu. Give the reported normalized growth for this molecule. CC(=O)OCC(=O)[C@@]1(O)CCC2C3C[C@H](C)C4=CC(=O)C=CC4(C)C3[C@@H](O)CC21C (stereo partly drawn)
Ans. 1.01

Qu. Give the reported normalized growth for this molecule. C[C@@H]1CC[C@@]23CCC4(C)[C@@](C=CC5[C@@]6(C)CC[C@H](O)C(C)(C)C6CC[C@]54C)(OC2=O)C3[C@H]1C (stereo partly drawn)
Ans. 0.986

Qu. Give the reported normalized growth for this molecule. CC1(C)C(O)CC(=O)C2(C)C1CC(O)C1(C)C2CCC2(C)C(c3ccoc3)OC(=O)C3OC321 (stereo not drawn)
Ans. 1

Qu. Give the reported normalized growth for this molecule. CC(C)=CC1C(CO)C1(C)C (stereo not drawn)
Ans. 0.989

Qu. Give the reported normalized growth for this molecule. COc1cccc2c1CCC1=CC(=O)CC[C@@]12C
Ans. 0.989

Qu. Give the reported normalized growth for this molecule. Cc1cc(N)c2ccccc2[n+]1CCCCCCCCCC[n+]1c(C)cc(N)c2ccccc21
Ans. 0.0709

Qu. Give the reported normalized growth for this molecule. CC[C@@]1(O)C(=O)OCc2c1cc1n(c2=O)Cc2cc3ccccc3nc2-1
Ans. 0.893

Qu. Give the reported normalized growth for this molecule. CCC(=O)O[C@]1(C(=O)CCl)[C@@H](C)CC2C3CCC4=CC(=O)C=C[C@]4(C)[C@@]3(F)[C@@H](O)C[C@@]21C (stereo partly drawn)
Ans. 0.981

Qu. Give the reported normalized growth for this molecule. COc1cc(C)c2c(=O)c3c(O)cc(OC)cc3oc2c1
Ans. 0.98

Qu. Give the reported normalized growth for this molecule. CC(=O)N1CCN(c2ccc(OCC3CO[C@](Cn4ccnc4)(c4ccc(Cl)cc4Cl)O3)cc2)CC1 (stereo partly drawn)
Ans. 0.105

Qu. Give the reported normalized growth for this molecule. NC[C@H]1O[C@H](OC2[C@@H](N)C[C@@H](N)[C@H](O[C@H]3O[C@H](CO)[C@@H](O)[C@H](N)[C@H]3O)[C@H]2O)[C@H](O)[C@@H](O)[C@@H]1O (stereo partly drawn)
Ans. 0.977

Qu. Give the reported normalized growth for this molecule. Oc1ccc2c3c1OC1[C@@H](O)CC[C@@]4(O)[C@@H](C2)N(CC2CCC2)CC[C@]314 (stereo partly drawn)
Ans. 1.01

Qu. Give the reported normalized growth for this molecule. CN(C)CC[C@H](c1ccc(Cl)cc1)c1ccccn1
Ans. 0.989

Qu. Give the reported normalized growth for this molecule. C[C@@H]1CCC2[C@](C)(CO)[C@@H](O)CC[C@]2(C)[C@@]12CC[C@@](CO)(CCO)O2 (stereo partly drawn)
Ans. 0.997

Qu. Give the reported normalized growth for this molecule. COC(=O)C[C@H]1C(C)(C)[C@@H](O)[C@@H]2CC3=C4CC(O)O[C@@H](c5ccoc5)[C@]4(C)CCC3[C@@]1(C)C2=O (stereo partly drawn)
Ans. 0.977

Qu. Give the reported normalized growth for this molecule. C[C@]12CCC(=O)C=C1CCc1ccc(O)cc12
Ans. 0.986

Qu. Give the reported normalized growth for this molecule. CNC[C@H](O)c1cccc(O)c1
Ans. 1.01

Qu. Give the reported normalized growth for this molecule. COc1ccc(-c2cc(=O)c3c(O)cc(O)c(-c4cc(-c5cc(=O)c6c(O)cc(O)cc6o5)ccc4OC)c3o2)cc1
Ans. 1.01

Qu. Give the reported normalized growth for this molecule. CCOC(=O)C1=C(O)C(=O)N(Cc2ccccc2)C1
Ans. 1

Qu. Give the reported normalized growth for this molecule. COc1ccc(-c2cc(=O)c3c(O)c(OC)c(O[C@H]4O[C@H](CO[C@@H]5O[C@@H](C)[C@H](O)[C@@H](O)[C@H]5O)[C@@H](O)[C@H](O)[C@H]4O)cc3o2)cc1
Ans. 1.01

Qu. Give the reported normalized growth for this molecule. CC[C@@]1(O)C(=O)OCc2c1cc1n(c2=O)Cc2cc3cc(O)ccc3nc2-1
Ans. 0.982

Qu. Give the reported normalized growth for this molecule. COc1cc(C)c2c(=O)c3c(O)cc(O)cc3oc2c1
Ans. 0.956

Qu. Give the reported normalized growth for this molecule. NC(=O)c1ccccc1O
Ans. 0.999

Cited source: PubChem BioAssay AID1159580
